# Test system: MDA-MB-468
# PROTOCOL_DETAILS: Cytotoxicity against human MDA-MB-468 cells assessed as cell growth at 1 uM after 48 hrs by sulforhodamine B assay
# Type: functional
# SETTINGS: MDA-MB-468, 48 h, read-out: Activity
REPORTED_PROPERTY: growth at 1 µM (%)
Report the value in % with no unit label.

Given "Cc1cc(O)cc(-c2nn(CC#N)cc2-c2ccnc(-c3ccc(N(C)C)cc3)c2)c1" , state its recorded growth at 1 µM.
-50

Please give the result for "Cc1cc(O)cc(-c2nn(CC#N)cc2-c2ccnc(-c3ccc(Oc4ccccc4)cc3)c2)c1" too.
-62

Please give the result for "COc1cc(C)cc(-c2c(-c3ccnc(-c4ccc(C(C)=O)cc4)c3)cnn2CC#N)c1" too.
-48

Please give the result for "COc1cc(C)cc(-c2nn(CC#N)cc2-c2ccnc(-c3ccc(N(C)C)cc3)c2)c1" too.
-55

Please give the result for "COc1cc(C)cc(-c2nn(CC#N)cc2-c2ccc(-c3cccc(C(C)=O)c3)nc2)c1" too.
-42

Please give the result for "COc1cc(C)cc(-c2c(-c3ccnc(-c4ccc(N(C)C)cc4)c3)cnn2CC#N)c1" too.
-57

----------
# Test system: NCI-H322M
# PROTOCOL_DETAILS: Cytotoxicity against human NCI-H322M cells assessed as cell growth at 0.001 uM after 48 hrs by sulforhodamine B assay
# Type: functional
# SETTINGS: read-out: Activity
REPORTED_PROPERTY: growth at 0.001 µM
Note: a bare number is incomplete; add the unit.

Given "Cc1cc(O)cc(-c2nn(CC#N)cc2-c2ccnc(-c3ccc(N(C)C)cc3)c2)c1" , state its recorded growth at 0.001 µM.
94%

Please give the result for "COc1cc(C)cc(-c2c(-c3ccnc(-c4ccc(N(C)C)cc4)c3)cnn2CC#N)c1" too.
97%

Please give the result for "Cc1cc(O)cc(-c2nn(CC#N)cc2-c2ccnc(-c3ccc(Oc4ccccc4)cc3)c2)c1" too.
94%

Please give the result for "COc1cc(C)cc(-c2nn(CC#N)cc2-c2ccnc(-c3ccc(N(C)C)cc3)c2)c1" too.
99%

Please give the result for "COc1cc(C)cc(-c2nn(CC#N)cc2-c2ccc(-c3cccc(C(C)=O)c3)nc2)c1" too.
94%

Please give the result for "COc1cc(C)cc(-c2c(-c3ccnc(-c4ccc(C(C)=O)cc4)c3)cnn2CC#N)c1" too.
102%

----------
# PROTOCOL_DETAILS: Cytotoxicity against human […] cells assessed as cell growth at 10 uM after 48 hrs by sulforhodamine B assay
# Type: functional
# SETTINGS: read-out: Activity
Exercise: state measured growth at 10 µM for each of the molecules provided.

Given "Cc1cc(O)cc(-c2nn(CC#N)cc2-c2ccnc(-c3ccc(Oc4ccccc4)cc3)c2)c1" , state its recorded growth at 10 µM.
-14%

Please give the result for "Cc1cc(O)cc(-c2nn(CC#N)cc2-c2ccnc(-c3ccc(N(C)C)cc3)c2)c1" too.
-28%

Please give the result for "COc1cc(C)cc(-c2nn(CC#N)cc2-c2ccc(-c3cccc(C(C)=O)c3)nc2)c1" too.
-21%

Please give the result for "COc1cc(C)cc(-c2nn(CC#N)cc2-c2ccnc(-c3ccc(N(C)C)cc3)c2)c1" too.
-28%

Please give the result for "COc1cc(C)cc(-c2c(-c3ccnc(-c4ccc(C(C)=O)cc4)c3)cnn2CC#N)c1" too.
-1%

----------
# Test system: SK-MEL-5
# PROTOCOL_DETAILS: Cytotoxicity against human SK-MEL-5 cells assessed as cell growth at 10 uM
# Type: functional
# SETTINGS: read-out: Activity
Exercise: state measured growth at 10 µM for each of the molecules provided.
Report the value in % with no unit label.

Give growth at 10 µM (SK-MEL-5) of the following molecule: "COc1cc(C)cc(-c2c(-c3ccnc(-c4cccc(NC(C)=O)c4)c3)cnn2CC#N)c1"
86.9

Please give the result for "COc1cc(C)cc(-c2nn(CC#N)cc2-c2ccnc(-c3ccc(C(C)=O)cc3)c2)c1" too.
39.7

Please give the result for "Cc1cc(O)cc(-c2nn(CC#N)cc2-c2ccnc(-c3ccc(N(C)C)cc3)c2)c1" too.
-16.3

Please give the result for "Cc1cc(O)cc(-c2nn(CC#N)cc2-c2ccnc(-c3ccc(C#N)cc3)c2)c1" too.
58.4

----------
# Test system: SNB-75
# PROTOCOL_DETAILS: Growth inhibition of human SNB75 cells after 48 hrs by sulforhodamine B assay
# Format: functional
# SETTINGS: SNB-75, 48 h
Exercise: state measured TGI for each of the compounds provided.
Report the value in µM with no unit label.

Given "COc1cc(C)cc(-c2nn(CC#N)cc2-c2ccnc(-c3ccc(N(C)C)cc3)c2)c1" , state its recorded TGI.
0.848

Please give the result for "Cc1cc(O)cc(-c2nn(CC#N)cc2-c2ccnc(-c3ccc(N(C)C)cc3)c2)c1" too.
5.94

Please give the result for "COc1cc(C)cc(-c2nn(CC#N)cc2-c2ccc(-c3cccc(C(C)=O)c3)nc2)c1" too.
6.24

Please give the result for "Cc1cc(O)cc(-c2nn(CC#N)cc2-c2ccnc(-c3ccc(Oc4ccccc4)cc3)c2)c1" too.
17.1

----------
Exercise: state measured LC50 for each of the compounds provided.
# Test system: MDA-MB-231
# PROTOCOL_DETAILS: Growth inhibition of human MDA-MB-231 cells after 48 hrs by sulforhodamine B assay
# Format: functional
# SETTINGS: MDA-MB-231, 48 h

Give LC50 (MDA-MB-231) of the following compound: "Cc1cc(O)cc(-c2nn(CC#N)cc2-c2ccnc(-c3ccc(N(C)C)cc3)c2)c1"
> 100 µM

Please give the result for "COc1cc(C)cc(-c2c(-c3ccnc(-c4ccc(C(C)=O)cc4)c3)cnn2CC#N)c1" too.
> 100 µM

Please give the result for "Cc1cc(O)cc(-c2nn(CC#N)cc2-c2ccnc(-c3ccc(Oc4ccccc4)cc3)c2)c1" too.
57.7 µM

Please give the result for "COc1cc(C)cc(-c2nn(CC#N)cc2-c2ccnc(-c3ccc(N(C)C)cc3)c2)c1" too.
> 100 µM

Please give the result for "COc1cc(C)cc(-c2c(-c3ccnc(-c4ccc(N(C)C)cc4)c3)cnn2CC#N)c1" too.
> 100 µM

Please give the result for "COc1cc(C)cc(-c2nn(CC#N)cc2-c2ccc(-c3cccc(C(C)=O)c3)nc2)c1" too.
> 100 µM

----------
# Tested on: BT-549
# PROTOCOL_DETAILS: Cytotoxicity against human BT549 cells assessed as cell growth at 10 uM
# Assay type: functional
# SETTINGS: read-out: Activity
Lab note: anything with growth at 10 µM below 80% is marked satisfied; values at 80% or higher are marked not satisfied.

Here's an entry: "Cc1cc(O)cc(-c2nn(CC#N)cc2-c2ccnc(-c3ccc(Oc4ccccc4)cc3)c2)c1" . Is its growth at 10 µM below 80%?
satisfied

Please give the result for "Cc1cc(O)cc(-c2nn(CC#N)cc2-c2ccnc(-c3ccc(C#N)cc3)c2)c1" too.
not satisfied

Please give the result for "COc1cc(C)cc(-c2nn(CC#N)cc2-c2ccnc(-c3ccc(C(C)=O)cc3)c2)c1" too.
not satisfied

Please give the result for "COc1cc(C)cc(-c2c(-c3ccnc(-c4ccc(N(C)C)cc4)c3)cnn2CC#N)c1" too.
satisfied

Please give the result for "Cc1cc(O)cc(-c2nn(CC#N)cc2-c2ccnc(-c3ccccc3)c2)c1" too.
not satisfied

Please give the result for "COc1cc(C)cc(-c2c(-c3ccnc(-c4ccc(C(C)=O)cc4)c3)cnn2CC#N)c1" too.
satisfied

Please give the result for "COc1cc(C)cc(-c2nn(CC#N)cc2-c2ccnc(-c3ccc(N(C)C)cc3)c2)c1" too.
satisfied

Please give the result for "COc1cc(C)cc(-c2nn(CC#N)cc2-c2ccc(-c3cccc(C(C)=O)c3)nc2)c1" too.
satisfied

----------
# Test system: CCRF-CEM
# PROTOCOL_DETAILS: Growth inhibition of human CCRF-CEM cells after 48 hrs by sulforhodamine B assay
# Type: functional
Lab note: anything with GI50 below 3 µM is marked Criterion met; values at 3 µM or higher are marked Criterion not met.

Here's an entry: "Cc1cc(O)cc(-c2nn(CC#N)cc2-c2ccnc(-c3ccc(N(C)C)cc3)c2)c1" . Is its GI50 below 3 µM?
Criterion not met

Please give the result for "COc1cc(C)cc(-c2nn(CC#N)cc2-c2ccnc(-c3ccc(N(C)C)cc3)c2)c1" too.
Criterion met

Please give the result for "Cc1cc(O)cc(-c2nn(CC#N)cc2-c2ccnc(-c3ccc(Oc4ccccc4)cc3)c2)c1" too.
Criterion met

Please give the result for "COc1cc(C)cc(-c2c(-c3ccnc(-c4ccc(N(C)C)cc4)c3)cnn2CC#N)c1" too.
Criterion met

Please give the result for "COc1cc(C)cc(-c2nn(CC#N)cc2-c2ccc(-c3cccc(C(C)=O)c3)nc2)c1" too.
Criterion met
